ASSAYED SYSTEM: recombinant GSK-3β enzyme (Homo sapiens, UniProt P49841)
Construct: FLAG (N)
Sequence (P49841 whole entry): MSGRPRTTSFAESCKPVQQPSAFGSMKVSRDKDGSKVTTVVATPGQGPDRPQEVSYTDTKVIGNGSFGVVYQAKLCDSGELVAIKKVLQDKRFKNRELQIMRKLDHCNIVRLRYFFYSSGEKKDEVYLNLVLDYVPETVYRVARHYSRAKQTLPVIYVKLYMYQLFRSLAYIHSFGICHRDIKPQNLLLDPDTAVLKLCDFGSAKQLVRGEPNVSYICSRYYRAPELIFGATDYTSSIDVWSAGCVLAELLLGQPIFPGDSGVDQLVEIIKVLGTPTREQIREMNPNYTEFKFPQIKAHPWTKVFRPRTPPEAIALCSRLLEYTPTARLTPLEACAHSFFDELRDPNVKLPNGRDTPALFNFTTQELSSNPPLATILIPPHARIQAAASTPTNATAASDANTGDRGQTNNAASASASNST
MEASUREMENT PROTOCOL: GSK-3β inhibitory activity evaluation (Kinase Glo luminescence, recombinant enzyme)
EXPERIMENTAL CONDITIONS: recombinant human GSK-3β 100 ng, glycogen synthase-derived substrate peptide, 2.5 μM ATP solution, 30 min room temperature
Description: Human GSK-3β gene was cloned by PCR using human brain cDNA (Clontech; trade name: QUICK-Clone cDNA) as a template and a primer set (GSK3β-U: 5′-[…] CTT-3′ (SEQ ID NO: 1) and GSK3β-L: 5′-[…]-3′ (SEQ ID NO: 2)) prepared by reference to the base sequence of GSK-3β gene registered under an accession No. NM_002093 in the GenBank. PCR was performed according to the protocol attached to KOD plus DNA polymerase (TOYOBO CO., LTD.). […]
Recorded IC50 values for a group of compounds are listed next.

MOLECULE: O=C(NCc1ccccn1)Nc1cc(-n2cc(-c3ccccc3)oc2=O)ccn1
IC50: < 0.1 µM
//
MOLECULE: CC1(C)C(=O)N(c2ccnc(NC(=O)NCc3ccccn3)c2)c2ccccc21
IC50: < 0.1 µM
//
MOLECULE: O=C(NCc1ccccn1)Nc1cc(NC(=O)c2ccccc2)ccn1
IC50: < 0.1 µM
